SYSTEM_UNDER_TEST: Angiotensin-converting enzyme (Oryctolagus cuniculus, UniProt P12822)
Sequence (P12822 whole entry): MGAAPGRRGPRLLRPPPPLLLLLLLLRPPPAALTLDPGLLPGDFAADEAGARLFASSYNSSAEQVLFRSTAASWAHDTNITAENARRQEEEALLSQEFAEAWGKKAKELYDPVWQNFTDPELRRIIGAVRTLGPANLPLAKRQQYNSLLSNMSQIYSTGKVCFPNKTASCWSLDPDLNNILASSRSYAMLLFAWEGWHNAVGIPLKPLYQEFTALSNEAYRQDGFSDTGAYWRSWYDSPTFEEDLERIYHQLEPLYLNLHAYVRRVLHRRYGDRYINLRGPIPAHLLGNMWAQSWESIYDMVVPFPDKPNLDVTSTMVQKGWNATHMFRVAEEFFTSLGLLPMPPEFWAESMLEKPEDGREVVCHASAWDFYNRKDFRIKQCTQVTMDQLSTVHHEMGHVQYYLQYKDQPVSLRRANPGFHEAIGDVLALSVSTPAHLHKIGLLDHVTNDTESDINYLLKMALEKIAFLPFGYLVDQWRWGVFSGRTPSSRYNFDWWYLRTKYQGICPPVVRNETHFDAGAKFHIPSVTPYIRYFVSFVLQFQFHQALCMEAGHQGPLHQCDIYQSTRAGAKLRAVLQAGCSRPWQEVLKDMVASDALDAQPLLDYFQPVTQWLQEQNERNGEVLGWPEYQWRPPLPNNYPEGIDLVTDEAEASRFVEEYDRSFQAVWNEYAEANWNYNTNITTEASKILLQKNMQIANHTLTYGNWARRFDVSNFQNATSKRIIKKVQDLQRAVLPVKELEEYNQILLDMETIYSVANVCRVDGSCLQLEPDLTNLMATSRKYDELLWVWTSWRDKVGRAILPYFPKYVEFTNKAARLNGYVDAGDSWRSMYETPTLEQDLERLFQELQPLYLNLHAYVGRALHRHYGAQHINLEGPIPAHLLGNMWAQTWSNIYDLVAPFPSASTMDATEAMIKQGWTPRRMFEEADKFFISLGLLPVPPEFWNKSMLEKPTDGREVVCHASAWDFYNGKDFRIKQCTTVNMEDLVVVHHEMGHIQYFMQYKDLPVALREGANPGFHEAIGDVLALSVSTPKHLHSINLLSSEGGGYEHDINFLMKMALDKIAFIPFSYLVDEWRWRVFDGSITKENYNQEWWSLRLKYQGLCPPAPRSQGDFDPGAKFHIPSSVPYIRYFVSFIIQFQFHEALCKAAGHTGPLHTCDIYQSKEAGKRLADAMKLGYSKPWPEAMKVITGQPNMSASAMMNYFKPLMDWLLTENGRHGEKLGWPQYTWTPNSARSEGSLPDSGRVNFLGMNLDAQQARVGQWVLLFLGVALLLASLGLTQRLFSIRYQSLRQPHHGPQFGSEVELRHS
pIC50: −log10 of the molar value. Residues, ends and D or L forms follow the SMILES beside them.
ENDPOINT_NAME: pIC50

CC(C)C[C@H](N)C(=O)N[C@@H](CCCCN)C(=O)N1CCC[C@H]1C(=O)O (H-Leu-Lys-Pro-OH)	6.49

A. CC[C@H](C)[C@H](N)C(=O)N1CCC[C@H]1C(=O)O (H-Ile-Pro-OH)
B. CC(C)[C@H](NC(=O)[C@H](C)N)C(=O)O (H-Ala-Val-OH)
C. C[C@H](N)C(=O)NCC(=O)O (H-Ala-Gly-OH)
Query: Put the entries in order of pIC50, starting with the largest number. Submit the labels in the order that the ranking request calls for.
Result: A, B, C
(A: 3.82, B: 3.52, C: 2.60)

1. CC(C)[C@H](NC(=O)[C@H](C)N)C(=O)N1CCC[C@H]1C(=O)O (H-Ala-Val-Pro-OH)
2. CC(C)C[C@H](NC(=O)[C@@H]1CCCN1)C(=O)N[C@@H](Cc1c[nH]c2ccccc12)C(=O)O (H-Pro-Leu-Trp-OH)
3. C[C@H](NC(=O)[C@@H](N)CCCNC(=N)N)C(=O)N1CCC[C@H]1C(=O)O (H-Arg-Ala-Pro-OH)
Query: Put the entries in order of pIC50, starting with the largest number. Submit the labels in the order that the ranking request calls for.
Result: 3, 2, 1
(3: 4.80, 2: 4.44, 1: 3.47)

P. NC(N)=NCCC[C@H](N)C(=O)N[C@@H](CO)C(=O)N1CCC[C@H]1C(=O)O (H-Arg-Ser-Pro-OH)
Q. NCC(=O)N[C@@H](CCC(=O)O)C(=O)O (H-Gly-Glu-OH)
R. N[C@@H](Cc1ccc(O)cc1)C(=O)N1CCC[C@H]1C(=O)O (H-Tyr-Pro-OH)
S. CC(C)[C@H](NC(=O)[C@@H](N)Cc1ccccc1)C(=O)N[C@@H](C)C(=O)N1CCC[C@H]1C(=O)O (H-FVAP-OH)
T. C[C@H](N)C(=O)N[C@@H](Cc1c[nH]cn1)C(=O)O (H-Ala-His-OH)
Query: Put the entries in order of pIC50, starting with the largest number. Submit the labels in the order that the ranking request calls for.
Result: S, P, R, Q, T

1. NCCCC[C@H](NC(=O)CN)C(=O)O (H-Gly-Lys-OH)
2. O=C(NCC(=O)N1CCC[C@H]1C(=O)O)[C@@H]1CCCN1 (H-Pro-Gly-Pro-OH)
3. CC(C)C[C@H](NC(=O)[C@@H]1CCCN1C(=O)[C@@H]1CCCN1)C(=O)O (H-Pro-Pro-Leu-OH)
Query: Put the entries in order of pIC50, starting with the largest number. Submit the labels in the order that the ranking request calls for.
Result: 2, 3, 1

P. N[C@@H](Cc1ccccc1)C(=O)N1CCC[C@H]1C(=O)N1CCC[C@H]1C(=O)O (H-Phe-Pro-Pro-OH)
Q. NCCCC[C@H](NC(=O)CNC(=O)[C@@H](N)Cc1ccccc1)C(=O)O (H-Phe-Gly-Lys-OH)
R. CC(C)[C@H](N)C(=O)N[C@@H](C)C(=O)N1CCC[C@H]1C(=O)O (H-Val-Ala-Pro-OH)
S. CC[C@H](C)[C@H](N)C(=O)N[C@@H](Cc1ccc(O)cc1)C(=O)O (H-Ile-Tyr-OH)
Query: Put the entries in order of pIC50, starting with the largest number. Submit the labels in the order that the ranking request calls for.
Result: R, S, P, Q

I. O=C(N[C@@H](Cc1ccc(O)cc1)C(=O)N1CCC[C@H]1C(=O)O)[C@@H]1CCCN1 (H-Pro-Tyr-Pro-OH)
II. CC(C)[C@H](N)C(=O)N[C@@H](Cc1ccc(O)cc1)C(=O)O (H-Val-Tyr-OH)
Query: For the two items I and II , which reports the higher pIC50 value? Could you answer with the label of the item you picked?
Result: II

1. CC(C)C[C@H](N)C(=O)N[C@@H](C)C(=O)N1CCC[C@H]1C(=O)O (H-Leu-Ala-Pro-OH)
2. CC(C)C[C@H](N)C(=O)N[C@@H](CC(N)=O)C(=O)N[C@@H](Cc1ccc(O)cc1)C(=O)O (H-Leu-Asn-Tyr-OH)
Query: For the two items 1 and 2 , which reports the higher pIC50 value? Could you answer with the label of the item you picked?
Result: 1

Values from ChEMBL document CHEMBL1806429
